Tested on: HGC-27
Experiment: Antiproliferative activity against human HGC27 cells by MTT assay
Type: functional, cell-based
measured_endpoint: IC50 (µM)
State the answer as a number, implicitly in µM.

Q: What value of IC50 on HGC-27 does `CC[C@@H](C(=O)[C@@H](C)[C@@H](O)[C@H](C)[C@@H]1O[C@@H]([C@@H](CC)C(=O)O)CC[C@@H]1C)[C@H]1O[C@]2(C=C[C@H](OC(=O)c3ccc(F)cc3)[C@]3(CC[C@@](C)([C@H]4CC[C@](O)(CC)[C@H](C)O4)O3)O2)[C@H](C)C[C@@H]1C` have?
A: 0.28
